Value source: BindingDB's records for patent US9108978

Target: Bifunctional ligase/repressor BirA (Staphylococcus aureus)
Sequence (A0A3A5LBF0 whole entry): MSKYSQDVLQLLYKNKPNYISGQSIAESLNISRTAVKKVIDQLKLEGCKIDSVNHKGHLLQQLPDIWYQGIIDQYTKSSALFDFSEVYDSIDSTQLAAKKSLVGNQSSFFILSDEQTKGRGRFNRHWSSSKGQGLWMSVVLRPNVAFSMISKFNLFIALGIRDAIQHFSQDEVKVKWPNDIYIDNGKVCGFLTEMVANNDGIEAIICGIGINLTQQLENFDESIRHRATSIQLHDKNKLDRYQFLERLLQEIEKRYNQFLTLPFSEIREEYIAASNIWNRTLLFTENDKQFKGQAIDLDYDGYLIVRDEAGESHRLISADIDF
Experiment: Enzyme Inhibition Assay
Conditions: pH 8; 37 °C
QUANTITY_MEASURED: pIC50
By convention, pIC50 is the negative base-10 log of a molar concentration.

Please report the measured pIC50 for Nc1ncnc2c1ncn2[C@@H]1O[C@H](COP(=O)(O)OCCCCC[C@@H]2SC[C@@H]3NC(=O)N[C@@H]32)[C@@H](O)[C@H]1O [US9108978, 2.02]
6.69

----------
Biological target: Bifunctional ligase/repressor BirA (Staphylococcus aureus, UniProt A0A3A5LBF0)
Sequence (A0A3A5LBF0 whole entry): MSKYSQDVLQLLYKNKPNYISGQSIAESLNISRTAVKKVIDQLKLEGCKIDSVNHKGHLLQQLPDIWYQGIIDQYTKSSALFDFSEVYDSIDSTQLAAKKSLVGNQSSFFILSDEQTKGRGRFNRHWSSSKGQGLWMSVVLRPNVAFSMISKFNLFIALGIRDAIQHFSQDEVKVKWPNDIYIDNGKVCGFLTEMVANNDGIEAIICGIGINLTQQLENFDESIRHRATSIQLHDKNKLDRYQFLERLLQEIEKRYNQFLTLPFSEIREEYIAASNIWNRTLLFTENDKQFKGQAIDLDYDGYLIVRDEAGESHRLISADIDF
Experiment: Enzyme Inhibition Assay
Conditions: pH 8; 37 °C
QUANTITY_MEASURED: Ki (nM)
Output spec: scalar in nM, unitless text.

Please report the measured Ki for "Nc1ncnc2c1ncn2[C@@H]1O[C@H](COP(=O)(O)OCCCCC[C@@H]2SC[C@@H]3NC(=O)N[C@@H]32)[C@@H](O)[C@H]1O"
30
